# STUDY SYSTEM: Phosphorylase b kinase gamma catalytic chain, liver/testis isoform (Homo sapiens);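 further: values are mean inhibition of PHKG2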
# SETUP CONDITIONS: at 0.1 µM
MEASURED QUANTITY: inhibition (%)
Give the value in % but do not write % after it.

The compound identified as CS(=O)(=O)CCNCc1ccc(-c2ccc3ncnc(Nc4ccc(OCc5cccc(F)c5)c(C(F)(F)F)c4)c3c2)o1 registered its inhibition at 4.72

The compound identified as c1cnn2ncc(-c3ccnc(Nc4ccc5c(c4)OCCO5)n3)c2c1 registered its inhibition at 7.04

The compound identified as COc1cc(C=NNc2ncnc3c2cnn3-c2ccccc2)ccc1O registered its inhibition at 3.34

The compound identified as O=C1NC(=O)C(N2CCc3ccccc32)=C1c1ccc(Cl)cc1 registered its inhibition at 4.72

The compound identified as Cc1cc(O)cc(C)c1/C=C/c1cncc(-c2nn[nH]n2)c1 registered its inhibition at 4.78

The compound identified as NCc1ccc(-c2nc(-c3ccc(Cl)c(O)c3)c(-c3ccncc3)[nH]2)cc1 registered its inhibition at 0.02

The compound identified as COc1ccc2cc(-c3c(-c4ccncc4)nc(-c4ccc([S+](C)[O-])cc4)n3C)ccc2c1 (stereo unspecified) registered its inhibition at 4.08

The compound identified as COc1cc2ncn(-c3cc(OCc4ccccc4C(F)(F)F)c(C(N)=O)s3)c2cc1OC registered its inhibition at 5.36

The compound identified as COc1cc2ncn(-c3cc(OCc4ccccc4Cl)c(C(N)=O)s3)c2cc1OC registered its inhibition at -0.8

The compound identified as CN1CCC(C(=O)Nc2n[nH]c3nnc(-c4ccccc4)cc23)CC1 registered its inhibition at 6.18

The compound identified as COc1ccc(-c2coc3ncnc(N)c23)cc1 registered its inhibition at 4.41

The compound identified as CCn1c(-c2nonc2N)nc2cnc(Oc3cccc(NC(=O)c4ccc(OCCN5CCOCC5)cc4)c3)cc21 registered its inhibition at 3.34

The compound identified as CCc1cccc(NC(=O)Nc2ccc(Oc3ccc4nc(NC(=O)OC)[nH]c4c3)cc2)c1 registered its inhibition at 3.07

The compound identified as Fc1cccc(COc2ccc(Nc3ncnc4cc(-c5ccc[nH]5)sc34)cc2Cl)c1 registered its inhibition at 2.24

The compound identified as CCCN1CCC(Oc2cc(Nc3nc(Nc4cccc(F)c4C(N)=O)c4cc[nH]c4n3)c(OC)cc2Cl)CC1 registered its inhibition at -0.41

The compound identified as Nc1nc(-c2ccc3c(c2)C(=Cc2cc(Br)c(O)c(Br)c2)C(=O)N3)cs1 registered its inhibition at -3.21

The compound identified as COc1ccc(-c2nn3ncccc3c2-c2ccnc(Nc3ccc(Cl)c(C(F)(F)F)c3)n2)cc1 registered its inhibition at 2.13

The compound identified as COc1ccc(COc2ccc(Cc3cnc(N)nc3N)cc2OC)cc1 registered its inhibition at 1.58

The compound identified as COc1cc2ncn(-c3cc(O[C@@H](C)c4ccccc4Cl)c(C(N)=O)s3)c2cc1OC registered its inhibition at 6.55

The compound identified as Cn1cc(C=C2C(=O)Nc3cccnc32)c2ccccc21 registered its inhibition at 2.23

The compound identified as Nc1nc(-c2ccccn2)c(-c2ccc3ncccc3n2)s1 registered its inhibition at 4.79

The compound identified as N#Cc1c(NC(=O)c2cccc3ccccc23)sc2c1CCCC2 registered its inhibition at 2.74

The compound identified as NS(=O)(=O)c1ccc(N/N=C2\C(=O)Nc3ccc(C(=O)NCCc4c[nH]cn4)cc32)cc1 registered its inhibition at 8.35

The compound identified as COc1ccccc1Nc1ncc(-c2ccccc2)o1 registered its inhibition at 5.65

The compound identified as COc1ccc(-c2ccncc2)cc1C(N)=O registered its inhibition at 5.73

The compound identified as CCn1c(-c2nonc2N)nc2c(N3CCCC3)nccc21 registered its inhibition at -3.65

The compound identified as CS(=O)(=O)Nc1ccc(N/C=C2\C(=O)Nc3ccccc32)cc1 registered its inhibition at -3.81

The compound identified as CC1=C(C(=O)Nc2ccc3[nH]ncc3c2)C(c2ccc3ccccc3c2)CC(=O)N1 (stereo unspecified) registered its inhibition at 2.37

The compound identified as CC(C)=Cc1cccc2c1/C(=N/Nc1ccc(S(N)(=O)=O)cc1)C(=O)N2 registered its inhibition at 1.74

The compound identified as Cc1ccc(NC(=O)c2ccnc(N3CCCC3)c2)cc1-c1ccc(C(=O)NCC2CC2)cc1 registered its inhibition at 5.9

The compound identified as Cc1nn(C)c2cc(N(C)c3ccnc(Nc4cccc(S(N)(=O)=O)c4)n3)ccc12 registered its inhibition at 2.44

The compound identified as COc1cccc(-n2ncc3c(N/N=C/c4cccc(F)c4)ncnc32)c1 registered its inhibition at 2.06

The compound identified as NC(=O)c1ccc(-c2nc(-c3ccccn3)c(-c3ccc4c(c3)OCO4)[nH]2)cc1 registered its inhibition at 3.32

The compound identified as [O-][S+]1CCN(Cc2ccc(-c3ccc4ncnc(Nc5ccc(OCc6ccccc6)c(F)c5)c4c3)o2)CC1 registered its inhibition at 2.22

The compound identified as CS(=O)(=O)CCNCc1nc(-c2ccc3ncnc(Nc4ccc(F)c(Cl)c4)c3c2)cs1 registered its inhibition at 3.04

The compound identified as NS(=O)(=O)c1cccc(-c2ccc3c(NC(=O)C4CC4)n[nH]c3c2)c1 registered its inhibition at -4.36

The compound identified as CS(=O)(=O)CCNCc1ccc(-c2ccc3ncnc(Nc4ccc(OCc5ccccc5)c(Cl)c4)c3c2)o1 registered its inhibition at -1.65

The compound identified as CCN1CCC(CC(=O)Nc2n[nH]c3nc(-c4cccs4)c(Br)cc23)CC1 registered its inhibition at -4.86

The compound identified as COc1cc(C)c(NC(=O)CN(C)C)cc1Nc1nc(Nc2cccc(F)c2C(N)=O)c2cc[nH]c2n1 registered its inhibition at 4.74

The compound identified as CC1=C(C(=O)Nc2ccc3[nH]ncc3c2)C(c2ccc(Cl)c(Cl)c2)CC(=O)N1 (stereo unspecified) registered its inhibition at 2.86

The compound identified as CC(=O)Nc1cccc(C#Cc2cncnc2Nc2ccc(OCc3cccc(F)c3)c(Cl)c2)n1 registered its inhibition at 0.59

Provenance of the data: ChEMBL document CHEMBL1961873
